Data provenance: patent US20240343803A1

# testSystem: T1, human PVRIG-his (AcroBiosystems, Cat NO. PVG-H52H4) (human, UniProt Q6DKI7 41-171, limits assumed)
# T1 construct: also called human PVRIG protein
# T1 sequence (looked up): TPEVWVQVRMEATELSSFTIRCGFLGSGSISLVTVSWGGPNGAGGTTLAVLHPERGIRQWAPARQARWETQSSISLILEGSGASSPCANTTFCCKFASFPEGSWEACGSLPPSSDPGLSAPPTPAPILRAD
# experiment: competition ELISA, PVRIG-His coated, competitor human PVRL2-mFc
# Parameters: unit not given here
outcomeMeasure: AUC
Give the value as a plain number.

>>> measurement("PVRIG-A105-H3a (Fc fusion, humanized variant of PVRIG-A105; also called A105.VH3a; not shown: constant part not restated for the humanized forms; parents are VHH-hinge-CH2-CH3 of human IgG1; detected by anti-human) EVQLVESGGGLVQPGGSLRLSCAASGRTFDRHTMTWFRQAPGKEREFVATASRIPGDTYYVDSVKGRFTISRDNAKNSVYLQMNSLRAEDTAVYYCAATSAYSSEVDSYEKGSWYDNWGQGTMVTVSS")
5.37
>>> measurement("PVRIG-A118-H1 (Fc fusion, humanized variant of PVRIG-A118; also called A118.VH1; not shown: constant part not restated for the humanized forms; parents are VHH-hinge-CH2-CH3 of human IgG1; detected by anti-human) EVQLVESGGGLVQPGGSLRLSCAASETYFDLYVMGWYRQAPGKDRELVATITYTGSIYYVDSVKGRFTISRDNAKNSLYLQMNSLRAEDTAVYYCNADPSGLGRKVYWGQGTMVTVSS")
1.31
>>> measurement("PVRIG-A118-H3 (Fc fusion, humanized variant of PVRIG-A118; also called A118.VH3; not shown: constant part not restated for the humanized forms; parents are VHH-hinge-CH2-CH3 of human IgG1; detected by anti-human) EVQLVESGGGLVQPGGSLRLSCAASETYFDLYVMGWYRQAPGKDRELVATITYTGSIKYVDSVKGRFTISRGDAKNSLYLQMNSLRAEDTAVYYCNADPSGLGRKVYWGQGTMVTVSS")
1.49
>>> measurement("PVRIG-A105-H1 (Fc fusion, humanized variant of PVRIG-A105; also called A105.VH1; not shown: constant part not restated for the humanized forms; parents are VHH-hinge-CH2-CH3 of human IgG1; detected by anti-human) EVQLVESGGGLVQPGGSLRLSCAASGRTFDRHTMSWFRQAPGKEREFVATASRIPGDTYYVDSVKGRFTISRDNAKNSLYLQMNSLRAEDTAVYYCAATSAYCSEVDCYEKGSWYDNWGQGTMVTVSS")
2.27

What value of measured AUC is listed for PVRIG-A50-H1d (Fc fusion, humanized variant of PVRIG-A50; also called A50.VH1d; not shown: constant part not restated for the humanized forms; parents are VHH-hinge-CH2-CH3 of human IgG1; detected by anti-human) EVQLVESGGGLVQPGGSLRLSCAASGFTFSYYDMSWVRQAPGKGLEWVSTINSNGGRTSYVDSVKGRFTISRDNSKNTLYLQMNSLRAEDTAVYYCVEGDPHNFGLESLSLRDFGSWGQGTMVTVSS ?
2.4

# get_value(readout='AUC', item= PVRIG-A50-H1b (Fc fusion, humanized variant of PVRIG-A50; also called A50.VH1b; not shown: constant part not restated for the humanized forms; parents are VHH-hinge-CH2-CH3 of human IgG1; detected by anti-human) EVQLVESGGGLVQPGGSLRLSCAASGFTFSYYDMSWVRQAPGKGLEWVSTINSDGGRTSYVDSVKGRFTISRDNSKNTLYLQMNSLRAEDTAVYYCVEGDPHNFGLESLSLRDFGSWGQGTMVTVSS )
2
